- Test system: CAKI-1 renal
- assay.procedure: NCI-60 one-dose screen, 48 h (100 = growth as untreated, 0 = no growth, -100 = all killed)
- condition.label: 10 µM unless noted
About 83,000 compounds went through this panel and 20% of them were active in at least one assay; those are over-represented in the sample as a whole.
Recorded measurements of growth, one per entry
Numeric answer only, unit % assumed.

Here is how some molecules turned out for growth.
growth for Fc1ccc(-c2cc3nc(C(Cl)Cl)nc(-c4ccc(Cl)cc4)n3n2)cc1 ?
-23.3

Same question, COc1cccc(COc2ccc(/C=C3/C(=O)Nc4cc(Cl)ccc43)cc2)c1 this time
90.6

Same question, CC(C)NC(=O)c1cc(-c2ccc(NC(=O)Nc3ccc(N4CCOCC4)c(C(F)(F)F)c3)cc2)nc2cccnc12 this time
63.7

Same question, COc1cc2cc(Oc3ccc(NC(=O)c4cccc(C(F)(F)F)c4)cc3)c(C)nc2cc1OCCN1CCCCC1 this time
57.4

Switching to the query record.
growth for Clc1ccc2oc3c(NCCCN4CCOCC4)c4ccccc4nc3c2c1 ?
12.8

* * *

- Tested on: HCC-2998 colon
- assay.procedure: NCI-60 one-dose screen, 48 h (100 = growth as untreated, 0 = no growth, -100 = all killed)
- condition.label: 10 µM unless noted
About 83,000 compounds went through this panel and 20% of them were active in at least one assay; those are over-represented in the sample as a whole.
Recorded measurements of growth, one per entry
Numeric answer only, unit % assumed.

Here is how some molecules turned out for growth.
Lab note: need growth for O=c1[nH]c2ccc(Cl)cc2cc1CSc1ccccc1Nc1nccc(-c2ccc(Cl)cc2)n1 on HCC-2998 colon, anyone have it?
119

Same question, CC(C)(C)OC(=O)N1C(=O)c2c(c3c4ccccc4[nH]c3c3ccc4ccccc4c23)C1=O this time
82.6

Same question, Cc1sc2c(c1C)c(=O)nc1c(-c3nc(-c4ccc(F)cc4)no3)n[nH]n12 this time
104

---
Lab note: need growth for Nc1cc(-c2c[nH]c3ccccc23)nc2cc(-c3c[nH]c4ccccc34)nn12 on HCC-2998 colon, anyone have it?
21

Same question, O=C1NC(=C(Cl)Cl)/C(=N/S(=O)(=O)N2CCCCC2CC2(C(F)(F)F)N=N2)N1 (configuration not stated) this time
5.46

* * *

Recorded measurements of growth, one per entry
- System: HT29 colon
- assay.procedure: NCI-60 one-dose screen, 48 h (100 = growth as untreated, 0 = no growth, -100 = all killed)
- condition.label: 10 µM unless noted
The panel holds about 83,000 compounds, 20% with a hit somewhere; the sample as a whole holds those more often.
Numeric answer only, unit % assumed.

Here is how some compounds turned out for growth.
growth for Cn1ccnc1C(=O)/C=C/c1ccc(NC(=O)Nc2ccc(F)cc2)cc1 ?
11.7

Same question, CCCC(=O)NC(c1cccnc1)c1cc(C)c2cccnc2c1O (stereo not given) this time
21.5

Same question, c1ccc(CNc2ncnc3ccc(-c4cnc5[nH]ncc5c4)cc23)cc1 this time
70.6

---
growth for c1ccc2c(NCCCn3ccnc3)c3oc4ccccc4c3nc2c1 ?
-24

Same question, COC(=O)C(C)NS(=O)(=O)/N=C1\NC(=O)NC1=C(Cl)Cl (stereo not given) this time
115

Same question, Cc1cccc2sc(/N=C(\N)C(Cl)(Cl)Cl)nc12 this time
105

Same question, Cc1ccc(CNS(=O)(=O)/N=C2\NC(=O)NC2=C(Cl)Cl)cc1 this time
15.7

Same question, Nc1cc(-c2c[nH]c3ccc(F)cc23)nc2cc(-c3c[nH]c4ccc(F)cc34)nn12 this time
-60.9

Same question, CS(=O)(=O)c1ccc(-n2cc(/C=C/C(=O)c3ccc(NC(=O)CO[N+](=O)[O-])cc3)c(-c3ccc(Cl)cc3)n2)cc1 this time
108

Same question, Cn1cc(-c2cc(N)n3nc(-c4cn(C)c5ccc(F)cc45)cc3n2)c2cc(F)ccc21 this time
-72.8

Same question, CN(C)c1ccc(/C=C2\Cc3c(F)ccc(Br)c3C2=O)cc1 this time
104

Same question, COc1cccc(N2CCN(c3ncnc4c3[nH]c3ccc(F)cc34)C[C@@H]2C)c1 this time
5.69

Same question, COc1ccc(-c2csc(N/N=C/c3c(-c4ccc(S(C)(=O)=O)cc4)nc4ccccn34)n2)cc1 this time
115

Same question, COc1ccc(-c2nn3c(-c4ccccc4F)nnc3s2)cc1 this time
39.3

Same question, O=C(N/N=C/c1ccc([N+](=O)[O-])s1)c1[nH]c2ccc(Br)cc2c1-c1ccccc1 this time
-22.4

Ref: PubChem BioAssay (NCI)
